Target System: UniProtKB P00533
Test Parameters: various cell lines
pIC50: −log10 of the molar value.
Property Name: pIC50

smiles=CNc1ncc2ncnc(Nc3cccc(Br)c3)c2n1 property_name=pIC50 endpoint_result=7.52
smiles=CN(C)CCCCNc1cc2ncnc(Nc3cccc(Br)c3)c2cn1 property_name=pIC50 endpoint_result=8.09

(A) C/C(O)=C(/C#N)C(=O)Nc1ccc(C(F)(F)F)cc1
(B) CN(C)CCNc1cc2c(Nc3cccc(Br)c3)ncnc2cn1
Compare A and B by numeric pIC50 and name the larger one. // caller expects the label of the chosen entry
B

---

# collection of IC50 values tested on EGFR (UniProt P00533)
# Sequence (P00533 whole entry, looked up): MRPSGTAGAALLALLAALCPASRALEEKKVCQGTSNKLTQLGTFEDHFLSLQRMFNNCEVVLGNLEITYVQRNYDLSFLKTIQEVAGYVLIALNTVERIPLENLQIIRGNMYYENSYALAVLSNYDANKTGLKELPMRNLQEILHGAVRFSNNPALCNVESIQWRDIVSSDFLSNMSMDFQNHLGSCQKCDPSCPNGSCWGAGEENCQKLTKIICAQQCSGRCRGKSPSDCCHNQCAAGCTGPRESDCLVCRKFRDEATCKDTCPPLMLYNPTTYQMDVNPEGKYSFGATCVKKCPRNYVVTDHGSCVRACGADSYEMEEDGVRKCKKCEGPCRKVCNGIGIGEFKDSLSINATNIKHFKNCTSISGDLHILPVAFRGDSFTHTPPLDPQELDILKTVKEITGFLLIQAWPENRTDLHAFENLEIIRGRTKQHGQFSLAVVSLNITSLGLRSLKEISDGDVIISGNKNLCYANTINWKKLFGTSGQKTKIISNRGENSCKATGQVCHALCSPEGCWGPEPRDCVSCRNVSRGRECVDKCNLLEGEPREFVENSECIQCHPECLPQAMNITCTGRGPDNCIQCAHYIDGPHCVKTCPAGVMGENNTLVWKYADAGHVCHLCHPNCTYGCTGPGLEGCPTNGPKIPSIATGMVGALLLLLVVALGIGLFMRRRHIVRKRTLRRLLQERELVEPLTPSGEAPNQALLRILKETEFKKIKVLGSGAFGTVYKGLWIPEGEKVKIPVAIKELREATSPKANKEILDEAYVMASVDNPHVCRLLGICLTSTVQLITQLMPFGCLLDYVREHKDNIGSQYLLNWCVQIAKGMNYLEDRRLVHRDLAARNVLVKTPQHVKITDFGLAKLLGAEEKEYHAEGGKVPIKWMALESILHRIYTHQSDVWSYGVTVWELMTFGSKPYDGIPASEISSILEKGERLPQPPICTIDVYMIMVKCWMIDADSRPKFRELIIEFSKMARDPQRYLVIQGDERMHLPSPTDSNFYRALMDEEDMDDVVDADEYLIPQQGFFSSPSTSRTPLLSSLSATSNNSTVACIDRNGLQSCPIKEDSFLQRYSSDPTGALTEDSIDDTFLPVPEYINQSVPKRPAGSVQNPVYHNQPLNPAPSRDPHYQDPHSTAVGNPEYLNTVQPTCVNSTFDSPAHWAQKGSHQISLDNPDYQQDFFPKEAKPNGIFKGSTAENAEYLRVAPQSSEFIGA
Property Name: IC50 (nM)

Some entries whose results are on file:
smiles=COc1cc2ncnc(N(C)c3cccc(C)c3)c2cc1OC endpoint_result=12000
smiles=COc1cc2ncnc(NCc3cccc(Br)c3)c2cc1OC endpoint_result=10

(P) O=CN/C=C/c1cc(O)ccc1O
(Q) COC(=O)Cc1c(SSc2[nH]c3ccccc3c2CC(=O)OC)[nH]c2ccccc12
(R) COc1cc2ncnc(Nc3ccc(F)c(Br)c3)c2cc1OCCCN1CCOCC1
(S) CN(C)CCCCNc1cc2ncnc(Nc3cccc(Br)c3)c2cn1
Rank descending by IC50. Give me the labels in the order the question wants.
Q, P, R, S
